All values here come from ChEMBL document CHEMBL1629440.

pKi: −log10 of the molar value.
# 5-hydroxytryptamine receptor 1B (Homo sapiens): pKi values follow
# Sequence (P28222 whole entry): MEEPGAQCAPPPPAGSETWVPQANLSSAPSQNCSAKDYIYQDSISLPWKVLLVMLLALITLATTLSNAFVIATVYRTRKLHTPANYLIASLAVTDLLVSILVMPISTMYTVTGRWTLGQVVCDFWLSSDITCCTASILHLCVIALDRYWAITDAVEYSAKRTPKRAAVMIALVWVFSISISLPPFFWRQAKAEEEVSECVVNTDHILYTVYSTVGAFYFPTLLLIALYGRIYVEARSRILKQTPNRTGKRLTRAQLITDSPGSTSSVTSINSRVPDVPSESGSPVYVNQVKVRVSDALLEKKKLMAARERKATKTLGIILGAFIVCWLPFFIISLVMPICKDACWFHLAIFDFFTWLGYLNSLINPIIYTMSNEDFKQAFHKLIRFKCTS

O=C(O)CCCCCN1CCC(CNC(=O)c2c3n(c4ccccc24)CCCO3)CC1 ... < 5.00

Entry COC(=O)CCCCCN1CCC(CNC(=O)c2c3n(c4ccccc24)CCCO3)CC1 : reported pKi = ?
< 5.00

----------
pKi: −log10 of the molar value.
Recorded below: pKi, system Sodium-dependent serotonin transporter (Homo sapiens, UniProt P31645).

O=C(O)CCCCCN1CCC(CNC(=O)c2c3n(c4ccccc24)CCCO3)CC1 ... < 5.00

Proceed to the following item.
What pKi appears in the records for this molecule with Sodium-dependent serotonin transporter (Homo sapiens, UniProt P31645)? COC(=O)CCCCCN1CCC(CNC(=O)c2c3n(c4ccccc24)CCCO3)CC1
Sequence (P31645 whole entry): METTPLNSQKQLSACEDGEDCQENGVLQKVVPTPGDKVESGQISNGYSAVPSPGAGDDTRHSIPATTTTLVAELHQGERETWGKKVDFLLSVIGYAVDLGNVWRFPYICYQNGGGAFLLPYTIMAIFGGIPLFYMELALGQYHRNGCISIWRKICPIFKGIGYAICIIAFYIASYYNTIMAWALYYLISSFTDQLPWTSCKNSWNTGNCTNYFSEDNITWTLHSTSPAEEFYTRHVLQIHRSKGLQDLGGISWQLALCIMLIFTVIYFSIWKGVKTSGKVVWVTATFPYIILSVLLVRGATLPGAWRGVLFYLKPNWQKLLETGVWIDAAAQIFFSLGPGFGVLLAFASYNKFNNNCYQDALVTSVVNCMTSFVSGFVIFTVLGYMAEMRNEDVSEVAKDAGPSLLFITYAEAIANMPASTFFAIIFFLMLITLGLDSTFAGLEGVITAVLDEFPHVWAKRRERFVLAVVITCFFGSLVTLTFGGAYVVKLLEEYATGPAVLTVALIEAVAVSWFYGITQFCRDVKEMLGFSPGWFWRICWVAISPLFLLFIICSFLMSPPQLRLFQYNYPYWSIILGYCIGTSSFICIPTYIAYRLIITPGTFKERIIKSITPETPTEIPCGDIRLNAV
< 5.00

----------
Measured pKb accompanies every entry in the list below.
target: 5-hydroxytryptamine receptor 4 (Homo sapiens, UniProt Q13639); assay: Antagonistic activity at human 5HT4 receptor expressed in HEK293 cells assessed as inhibition of 5-HT stimulated ADCY activity after 20 mins; format: functional, cell-based
Sequence (Q13639 whole entry): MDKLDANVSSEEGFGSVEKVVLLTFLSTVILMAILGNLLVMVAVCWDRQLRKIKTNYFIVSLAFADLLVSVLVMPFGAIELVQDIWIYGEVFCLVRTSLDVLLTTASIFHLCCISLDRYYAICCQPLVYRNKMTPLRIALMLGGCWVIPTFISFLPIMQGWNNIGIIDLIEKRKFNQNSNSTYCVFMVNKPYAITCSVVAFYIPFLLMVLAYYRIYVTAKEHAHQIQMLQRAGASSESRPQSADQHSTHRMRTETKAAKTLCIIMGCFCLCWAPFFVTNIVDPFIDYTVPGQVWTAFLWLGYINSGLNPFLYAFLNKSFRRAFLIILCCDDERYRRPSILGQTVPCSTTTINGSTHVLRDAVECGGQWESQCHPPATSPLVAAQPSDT
Form rule: numeric answer, no unit written next to it.

O=C(O)CCCCCN1CCC(CNC(=O)c2c3n(c4ccccc24)CCCO3)CC1 ... 7.94
O=C(O)CCCN1CCC(CNC(=O)c2c3n(c4ccccc24)CCCO3)CC1 ... 7.96
O=C(O)CCN1CCC(CNC(=O)c2c3n(c4ccccc24)CCCO3)CC1 ... 8.08
CC(C)(C)OC(=O)CN1CCC(CNC(=O)c2c3n(c4ccccc24)CCCO3)CC1 ... 9.01
CCOC(=O)CCCN1CCC(CNC(=O)c2c3n(c4ccccc24)CCCO3)CC1 ... 9.43
O=C(O)CCCN1CCC(COC(=O)c2c[nH]c3ccccc23)CC1 ... 8.16
O=C(CCCCN1CCC(CNC(=O)c2c3n(c4ccccc24)CCCO3)CC1)OCc1ccccc1 ... 10.2
CCOP(=O)(CCN1CCC(CNC(=O)c2c3n(c4ccccc24)CCCO3)CC1)OCC ... 8.64
O=C(O)c1ccc(CN2CCC(CNC(=O)c3c4n(c5ccccc35)CCCO4)CC2)cc1 ... 7.25

# input for lookup
Find the recorded pKb belonging to Cn1cc(C(=O)OCC2CCN(CCNS(C)(=O)=O)CC2)c2ccccc21 and report it.
9.24

----------
// each record: one item and its Ki for Beta-2 adrenergic receptor (Homo sapiens)

COC(=O)CCCCCN1CCC(CNC(=O)c2c3n(c4ccccc24)CCCO3)CC1 ... > 10 µM

Need Ki of O=C(O)CCCCCN1CCC(CNC(=O)c2c3n(c4ccccc24)CCCO3)CC1 , thanks.
> 10 µM

----------
pKi: −log10 of the molar value.
# pKi measurements, system: Muscarinic acetylcholine receptor M3 (Homo sapiens, UniProt P20309)
# Sequence (P20309 whole entry): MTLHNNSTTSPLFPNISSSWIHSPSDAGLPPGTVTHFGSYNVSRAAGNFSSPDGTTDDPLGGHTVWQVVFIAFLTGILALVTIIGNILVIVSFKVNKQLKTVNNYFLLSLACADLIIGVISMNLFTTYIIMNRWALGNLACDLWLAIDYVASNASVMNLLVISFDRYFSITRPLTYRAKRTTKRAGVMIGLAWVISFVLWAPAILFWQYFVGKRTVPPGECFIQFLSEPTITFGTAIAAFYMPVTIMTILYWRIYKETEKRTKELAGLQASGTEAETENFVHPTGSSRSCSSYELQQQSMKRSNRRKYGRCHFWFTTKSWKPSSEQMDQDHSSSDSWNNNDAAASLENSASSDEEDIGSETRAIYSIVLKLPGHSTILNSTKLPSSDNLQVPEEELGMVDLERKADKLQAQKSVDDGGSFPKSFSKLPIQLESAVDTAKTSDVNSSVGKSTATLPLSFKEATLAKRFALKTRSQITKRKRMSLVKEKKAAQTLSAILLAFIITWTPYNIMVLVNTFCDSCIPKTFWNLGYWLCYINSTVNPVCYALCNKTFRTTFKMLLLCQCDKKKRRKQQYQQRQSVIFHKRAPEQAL

COC(=O)CCCCCN1CCC(CNC(=O)c2c3n(c4ccccc24)CCCO3)CC1 ... < 5.00

In the following, a different compound is considered.
Give its pKi value. Item: O=C(O)CCCCCN1CCC(CNC(=O)c2c3n(c4ccccc24)CCCO3)CC1
< 5.00

----------
Ki values recorded for 5-hydroxytryptamine receptor 5A (Homo sapiens, UniProt P47898)

COC(=O)CCCCCN1CCC(CNC(=O)c2c3n(c4ccccc24)CCCO3)CC1 ... > 10 µM

Kindly review the next molecule as well.
// fetch 5-hydroxytryptamine receptor 5A (Homo sapiens, UniProt P47898) Ki for O=C(O)CCCCCN1CCC(CNC(=O)c2c3n(c4ccccc24)CCCO3)CC1
> 10 µM

----------
molecular target: Alpha-2A adrenergic receptor (Homo sapiens); assay: Binding affinity to alpha2A adrenergic receptor
Sequence (P08913 whole entry): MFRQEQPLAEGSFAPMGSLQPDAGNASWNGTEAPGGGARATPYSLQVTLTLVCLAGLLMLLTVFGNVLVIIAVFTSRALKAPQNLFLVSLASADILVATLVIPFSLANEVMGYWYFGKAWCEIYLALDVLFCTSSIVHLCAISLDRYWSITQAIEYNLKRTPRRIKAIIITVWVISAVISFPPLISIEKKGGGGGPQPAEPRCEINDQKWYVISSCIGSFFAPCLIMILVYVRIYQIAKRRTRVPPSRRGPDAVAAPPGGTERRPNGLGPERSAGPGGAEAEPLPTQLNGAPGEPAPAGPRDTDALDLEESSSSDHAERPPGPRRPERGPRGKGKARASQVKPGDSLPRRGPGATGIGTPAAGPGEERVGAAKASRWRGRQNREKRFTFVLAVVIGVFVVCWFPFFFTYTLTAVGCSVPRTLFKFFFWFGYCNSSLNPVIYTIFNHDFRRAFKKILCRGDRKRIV
pKi: −log10 of the molar value.
Item-by-item account of pKi

O=C(O)CCCCCN1CCC(CNC(=O)c2c3n(c4ccccc24)CCCO3)CC1 ... < 5.00

Now, please, on to the next molecule.
Recorded pKi of COC(=O)CCCCCN1CCC(CNC(=O)c2c3n(c4ccccc24)CCCO3)CC1 , please.
< 5.00

----------
target: 5-hydroxytryptamine receptor 4 (Homo sapiens); assay: Antagonistic activity at human 5HT4 receptor expressed in HEK293 cells assessed as inhibition of 5-HT stimulated ADCY activity after 20 mins; format: functional, cell-based
experimental_readout: pKb

CC(C)(C)C(=O)OCOC(=O)c1ccc(CN2CCC(CNC(=O)c3c4n(c5ccccc35)CCCO4)CC2)cc1 ... 9.07
CCOC(=O)CCCN1CCC(CNC(=O)c2c[nH]c3ccccc23)CC1 ... 5.84
COC(=O)CCCCCCCCCCCN1CCC(CNC(=O)c2c3n(c4ccccc24)CCCO3)CC1 ... 9.89
O=C(O)CCCN1CCC(CNC(=O)c2c[nH]c3ccccc23)CC1 ... 4.62
O=C(O)CN1CCC(CNC(=O)c2c3n(c4ccccc24)CCCO3)CC1 ... 7.91
COC(=O)CCCCCCCCCN1CCC(CNC(=O)c2c3n(c4ccccc24)CCCO3)CC1 ... 9.33
COC(=O)CCCCCN1CCC(CNC(=O)c2c3n(c4ccccc24)CCCO3)CC1 ... 9.13
CC(C)(C)C(=O)OCOC(=O)CCCCCN1CCC(CNC(=O)c2c3n(c4ccccc24)CCCO3)CC1 ... 9.83

# next compound below
Dear colleague, I am looking for the recorded pKb of the following compound: O=C(O)CCCCCCCCCCCN1CCC(CNC(=O)c2c3n(c4ccccc24)CCCO3)CC1
8.97

----------
biological target: 5-hydroxytryptamine receptor 4 (Homo sapiens, UniProt Q13639); assay: Displacement of [3H]GR113808 from human 5HT4 receptor expressed in HEK293 cells by liquid scintillation counting; assay type: cell-based
experimental_readout: Ki (nM)
Could you give me the number in nM? Just the number is fine.

For orientation, consider the following solved cases.
O=C(CCCCCN1CCC(CNC(=O)c2c3n(c4ccccc24)CCCO3)CC1)OCc1ccccc1 ... 0.141
CC(C)(C)OC(=O)CCCCCN1CCC(CNC(=O)c2c3n(c4ccccc24)CCCO3)CC1 ... 0.0537

Which Ki value belongs to COC(=O)CCCCCCCCCN1CCC(CNC(=O)c2c3n(c4ccccc24)CCCO3)CC1 ?
0.195

Could you tell me which Ki is on file for O=C(O)CCCCCCCCCCCN1CCC(CNC(=O)c2c3n(c4ccccc24)CCCO3)CC1 ?
2.45

----------
pKi: −log10 of the molar value.
A set of compounds tested on 5-hydroxytryptamine receptor 7 (Homo sapiens, UniProt P34969), with measured pKi:

O=C(O)CCCCCN1CCC(CNC(=O)c2c3n(c4ccccc24)CCCO3)CC1 ... < 5.00

Moving on to the next compound.
Provide the documented pKi with 5-hydroxytryptamine receptor 7 (Homo sapiens, UniProt P34969) as the system for COC(=O)CCCCCN1CCC(CNC(=O)c2c3n(c4ccccc24)CCCO3)CC1
Sequence (P34969 whole entry): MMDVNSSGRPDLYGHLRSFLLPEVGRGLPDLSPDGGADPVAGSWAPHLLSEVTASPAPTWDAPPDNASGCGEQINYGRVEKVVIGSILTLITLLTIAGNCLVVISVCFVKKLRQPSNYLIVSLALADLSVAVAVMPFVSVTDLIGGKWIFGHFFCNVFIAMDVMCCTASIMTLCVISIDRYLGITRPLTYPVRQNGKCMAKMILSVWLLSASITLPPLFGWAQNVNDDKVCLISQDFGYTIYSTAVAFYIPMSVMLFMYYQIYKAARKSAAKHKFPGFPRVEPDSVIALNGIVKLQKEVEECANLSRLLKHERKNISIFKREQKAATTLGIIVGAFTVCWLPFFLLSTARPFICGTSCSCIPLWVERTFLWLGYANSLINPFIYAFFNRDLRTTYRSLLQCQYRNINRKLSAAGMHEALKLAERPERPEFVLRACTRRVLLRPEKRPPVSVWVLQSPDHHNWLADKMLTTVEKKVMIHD
< 5.00

----------
Let's go through some recorded Ki values for 5-hydroxytryptamine receptor 6 (Homo sapiens) together.

COC(=O)CCCCCN1CCC(CNC(=O)c2c3n(c4ccccc24)CCCO3)CC1 ... > 10 µM

In the following, a different molecule is considered.
Item: O=C(O)CCCCCN1CCC(CNC(=O)c2c3n(c4ccccc24)CCCO3)CC1 Test system: 5-hydroxytryptamine receptor 6 (Homo sapiens) Read-out: Ki Value: ?
> 10 µM

----------
biological target: Histamine H1 receptor (Homo sapiens)
Sequence (P35367 whole entry): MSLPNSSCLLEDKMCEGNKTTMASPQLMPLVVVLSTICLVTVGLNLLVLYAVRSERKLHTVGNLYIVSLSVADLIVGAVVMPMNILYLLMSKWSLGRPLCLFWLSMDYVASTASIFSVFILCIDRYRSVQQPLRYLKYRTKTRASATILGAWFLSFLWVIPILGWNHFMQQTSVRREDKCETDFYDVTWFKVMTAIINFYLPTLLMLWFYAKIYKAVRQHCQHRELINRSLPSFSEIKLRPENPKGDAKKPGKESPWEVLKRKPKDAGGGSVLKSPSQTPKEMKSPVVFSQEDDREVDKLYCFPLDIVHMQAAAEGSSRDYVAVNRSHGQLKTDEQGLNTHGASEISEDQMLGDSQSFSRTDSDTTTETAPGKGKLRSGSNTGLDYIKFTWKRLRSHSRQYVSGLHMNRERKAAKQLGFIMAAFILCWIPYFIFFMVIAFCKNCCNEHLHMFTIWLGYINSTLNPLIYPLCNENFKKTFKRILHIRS
experimental_readout: pKi
Quick note: pKi means taking -log10 of the concentration in moles per liter.

What reported pKi corresponds to COC(=O)CCCCCN1CCC(CNC(=O)c2c3n(c4ccccc24)CCCO3)CC1 on Histamine H1 receptor (Homo sapiens)?
5.90

----------
Please consider the recorded Ki for D(3) dopamine receptor (Homo sapiens, UniProt P35462) in what follows.

O=C(O)CCCCCN1CCC(CNC(=O)c2c3n(c4ccccc24)CCCO3)CC1 ... > 10 µM

Okay, now this compound:
# input compound: COC(=O)CCCCCN1CCC(CNC(=O)c2c3n(c4ccccc24)CCCO3)CC1 ; wanted: its Ki
> 10 µM

----------
biological target: Alpha-1B adrenergic receptor (Homo sapiens); experiment: Binding affinity to Alpha-1B adrenergic receptor
Sequence (P35368 whole entry): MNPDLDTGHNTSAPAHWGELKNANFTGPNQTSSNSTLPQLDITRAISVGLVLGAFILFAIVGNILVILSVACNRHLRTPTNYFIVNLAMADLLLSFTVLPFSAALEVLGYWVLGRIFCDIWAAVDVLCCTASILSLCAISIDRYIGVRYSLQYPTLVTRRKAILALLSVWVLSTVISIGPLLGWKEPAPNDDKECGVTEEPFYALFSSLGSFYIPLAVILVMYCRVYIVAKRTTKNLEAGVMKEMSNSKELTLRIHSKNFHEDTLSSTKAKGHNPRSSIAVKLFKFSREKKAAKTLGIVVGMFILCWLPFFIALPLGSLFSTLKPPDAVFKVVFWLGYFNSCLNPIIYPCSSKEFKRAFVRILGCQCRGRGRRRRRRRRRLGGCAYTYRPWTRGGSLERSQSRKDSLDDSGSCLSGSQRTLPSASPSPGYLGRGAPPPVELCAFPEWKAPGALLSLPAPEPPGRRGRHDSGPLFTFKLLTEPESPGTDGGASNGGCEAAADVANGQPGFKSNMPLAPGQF
pKi: −log10 of the molar value.
experimental_readout: pKi

O=C(O)CCCCCN1CCC(CNC(=O)c2c3n(c4ccccc24)CCCO3)CC1 ... < 5.00

// switching to the query molecule
Lab note: need pKi with Alpha-1B adrenergic receptor (Homo sapiens) for entry COC(=O)CCCCCN1CCC(CNC(=O)c2c3n(c4ccccc24)CCCO3)CC1 , please look it up.
< 5.00

----------
Below: a set of entries, each annotated with reported logD.
assay: Lipophilicity, log D of the compound in octanol buffer at pH 7.4; assay type: physicochemical

Would you please look over these solved cases?
COC(=O)CCCCCN1CCC(CNC(=O)c2c3n(c4ccccc24)CCCO3)CC1 ... 2.2
O=C(O)CCCCCN1CCC(CNC(=O)c2c3n(c4ccccc24)CCCO3)CC1 ... -1.3
O=C(O)CN1CCC(CNC(=O)c2c3n(c4ccccc24)CCCO3)CC1 ... -1.1
O=C(O)CCN1CCC(CNC(=O)c2c3n(c4ccccc24)CCCO3)CC1 ... -1.3
O=C(O)CCCCN1CCC(CNC(=O)c2c3n(c4ccccc24)CCCO3)CC1 ... -1.3

# input compound: CC(C)(C)C(=O)OCOC(=O)c1ccc(CN2CCC(CNC(=O)c3c4n(c5ccccc35)CCCO4)CC2)cc1 ; wanted: its logD
2.3

Report logD for O=C(O)CCCN1CCC(CNC(=O)c2c3n(c4ccccc24)CCCO3)CC1 please.
-1.2

I have this compound here, CCCCN1CCC(CNC(=O)c2c3n(c4ccccc24)CCCO3)CC1 , and I need its recorded logD.
2.2
